Sourced from patent US20210214461A1

Overview of recorded signal change in competition ELISA (% reduction in OD) for various binders
molecular target: pre-existing anti-scFv903 antibodies in human serum H60 (human); assay: competition ADA bridging ELISA
In your response, put the unit directly after the numeric value.

Recorded results for 3 binders are shown here.
binder="scFv 961 (scFv) scFv: EIVMTQSPSTLSASVGDRVIITCQASEIIHSWLAWYQQKPGKAPKLLIYLASTLASGVPSRFSGSGSGAEFTLTISSLQPDDFATYYCQNVYLASTNGANFGQGTKLTVLGGGGGSGGGGSGGGGSGGGGSEVQLVESGGGSVQPGGSLRLSCTASGFSLTDYYYMTWVRQAPGKGLEWVGFIDPDDDPYYATWAKGRFTISRDTSKNTVYLQMNSLRAEDTATYYCAGGDHNSGWGLDIWGQGTTVTVSS" obs_value=-1%
binder="scFv 903 (scFv) scFv: EIVMTQSPSTLSASVGDRVIITCQASEIIHSWLAWYQQKPGKAPKLLIYLASTLASGVPSRFSGSGSGAEFTLTISSLQPDDFATYYCQNVYLASTNGANFGQGTKLTVLGGGGGSGGGGSGGGGSGGGGSEVQLVESGGGLVQPGGSLRLSCTASGFSLTDYYYMTWVRQAPGKGLEWVGFIDPDDDPYYATWAKGRFTISRDTSKNTVYLQMNSLRAEDTAVYYCAGGDHNSGWGLDIWGQGTLVTVSS" obs_value=-96%
binder="scFv 791 (scFv) scFv: MEIVMTQSPSTLSASLGDRVIITCQSSQSVYGNIWMAWYQQKSGKAPKLLIYQASKLASGVPSRFSGSGSGAEFSLTISSLQPDDFATYYCQGNFNTGDRYAFGQGTKLTVLGGGGGSGGGGSGGGGSGGGGSEVQLVESGGGLVQPGGSLRLSCTASGFTISRSYWICWVRQAPGKGLEWVACIYGDNDITPLYANWAKGRFPVSTDTSKNTVYLQMNSLRAEDTAVYYCARLGYADYAYDLWGQGTLVTVSS" obs_value=-95%

Now, please, on to the next binder.
What value of signal change in competition ELISA (% reduction in OD) has been reported for the following binder? scFv105 (scFv) scFv: DIVMTQSPSSLSASVGDRVTLTCTASQSVSNDVVWYQQRPGKAPKLLIYSAFNRYTGVPSRFSGRGYGTDFTLTISSLQPEDVAVYYCQQDYNSPRTFGQGTKLEVKRGGGGSGGGGSGGGGSSGGGSQVQLVQSGAEVKKPGASVKVSCTASGYTFTHYGMNWVRQAPGKGLEWMGWINTYTGEPTYADKFKDRFTFSLETSASTVYMELTSLTSDDTAVYYCARERGDAMDYWGQGTLVTVSS
-11%
